Experimental details: metabolic stability in rat liver microsomes (RLM)
Type: in vitro ADME
Test context: RLM, 50 μM substrate, with NADPH, LC–UV
// reported Residual microsomal substrate (t=60 min) per item
Kindly answer with a numeric value in %, unit omitted.

Below, 10 compounds whose answers are already recorded.
CC(C)OC(=O)c1cccc(Cn2cc(-c3cccc4c(=O)cc(N5CCOCC5)[nH]c34)nn2)c1
16
CCCC(C)OC(=O)c1cccc(Cn2cc(-c3cccc4c(=O)cc(N5CCOCC5)[nH]c34)nn2)c1 (stereo not shown)
60
CC(C)(C)OC(=O)c1cccc(Cn2cc(-c3cccc4c(=O)cc(N5CCOCC5)[nH]c34)nn2)c1
79
COC(=O)c1cccc(Cn2cc(-c3cccc4c(=O)cc(N5CCOCC5)[nH]c34)nn2)c1
20
O=C(OCCN1CCOCC1)c1cccc(Cn2cc(-c3cccc4c(=O)cc(N5CCOCC5)[nH]c34)nn2)c1
18
O=C(OCc1ccc2c(c1)OCO2)c1cccc(Cn2cc(-c3cccc4c(=O)cc(N5CCOCC5)[nH]c34)nn2)c1
83
CCOC(=O)c1cccc(Cn2cc(-c3cccc4c(=O)cc(N5CCOCC5)[nH]c34)nn2)c1
24
CCCCOC(=O)c1cccc(Cn2cc(-c3cccc4c(=O)cc(N5CCOCC5)[nH]c34)nn2)c1
53
CC(C)CCOC(=O)c1cccc(Cn2cc(-c3cccc4c(=O)cc(N5CCOCC5)[nH]c34)nn2)c1
39
O=C(OCc1ccccc1)c1cccc(Cn2cc(-c3cccc4c(=O)cc(N5CCOCC5)[nH]c34)nn2)c1
53

Name the recorded Residual microsomal substrate (t=60 min) of the compound listed here: CCCCCCCCCCCOC(=O)c1cccc(Cn2cc(-c3cccc4c(=O)cc(N5CCOCC5)[nH]c34)nn2)c1 80

Name the recorded Residual microsomal substrate (t=60 min) of the compound listed here: CCCCCCCCCCCCCCCCCCOC(=O)c1cccc(Cn2cc(-c3cccc4c(=O)cc(N5CCOCC5)[nH]c34)nn2)c1 100

Name the recorded Residual microsomal substrate (t=60 min) of the compound listed here: O=C(OCc1ccncc1)c1cccc(Cn2cc(-c3cccc4c(=O)cc(N5CCOCC5)[nH]c34)nn2)c1 0
